Entry source: patent US5935959A

- experimental_target: cathepsin L (Homo sapiens, UniProt P07711)
- Construct: purchased Cosmo Bio
- Sequence (P07711 114-333, species assumed): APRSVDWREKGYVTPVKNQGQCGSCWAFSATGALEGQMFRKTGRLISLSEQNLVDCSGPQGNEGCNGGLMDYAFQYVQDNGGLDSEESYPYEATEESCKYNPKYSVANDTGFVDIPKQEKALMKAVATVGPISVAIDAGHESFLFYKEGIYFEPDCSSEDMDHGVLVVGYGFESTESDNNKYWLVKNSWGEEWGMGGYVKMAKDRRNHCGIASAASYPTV
- experimental_protocol: Assay of Cathepsin L-Inhibitory Activity (Z-Phe-Arg-MCA)
- Type: biochemical
- applied_conditions: read-out: Cathepsin L 50% Inhibitory concentration (IC50); Z-Phe-Arg-MCA 20 μM, pH 5.5, 20 min, 30° C.
attribute_measured: pIC50
// pIC50 here means minus log10 of the molar concentration (mol/L)

Exercise: // lookup pIC50 for O=C(O)[C@H]1O[C@@H]1C(=O)NCC(=O)N1CCN(c2ccccc2Cl)CC1 [Example 32]
Solution: 4.42
